target or test system: human type X sPLA2 (Homo sapiens, UniProt O15496)
Construct: unpurified culture supernatant used
Sequence (O15496 43-165): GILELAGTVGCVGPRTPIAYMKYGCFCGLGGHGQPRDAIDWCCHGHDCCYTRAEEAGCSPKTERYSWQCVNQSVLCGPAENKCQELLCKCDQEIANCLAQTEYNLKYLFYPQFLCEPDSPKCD
protocol details: Inhibition test of human secretory phospholipase A2, chromogenic assay, Type X enzyme
setup conditions: human type X enzyme (CHO supernatant) 15 μl/well, absorbance change 30 min, OD 405 nm
pIC50: −log10 of the molar value.
measurement name: pIC50

Previously resolved entries follow.
>  <compound>
NC(=O)C1=CCCc2c1c1c(OCC(=O)O)cc(-c3ccccc3)nn1c2Cc1ccccc1

>  <pIC50>
9.00

$$$$
>  <compound>
COc1cccc(Cc2c3c(c4c(OC(C)C(=O)O)cc(C)nn24)C(C(N)=O)=CCC3)c1 (centres unmarked)

>  <pIC50>
7.92

$$$$
>  <compound>
COc1cccc(Cc2c3c(c4c(OCC(=O)O)cc(C)nn24)C(C(N)=O)=CCC3)c1

>  <pIC50>
7.80

$$$$
>  <compound>
COc1cccc(Cc2c3c(c4c(OCC(=O)O)cc(-c5ccccc5)nn24)C(C(N)=O)=CCC3)c1

>  <pIC50>
8.70

$$$$
>  <compound>
Cc1ccc(Cc2c3c(c4c(OC(C)C(=O)O)cc(C)nn24)C(C(N)=O)=CCC3)cc1 (centres unmarked)

>  <pIC50>
8.15

$$$$
>  <compound>
Cc1cn2c(Cc3ccccc3)c3c(c2c(OC(C)C(=O)O)n1)C(C(N)=O)=CCC3 (centres unmarked)

>  <pIC50>
8.15

$$$$

[A] Cc1cn2c(CC3CCCCC3)c3c(c2c(OC(C)C(=O)O)n1)C(C(N)=O)=CCC3 (centres unmarked)
[B] Cc1cc(OCC(=O)O)c2c3c(c(Cc4ccccc4)n2n1)CCC=C3C(N)=O
Among A and B , which shows a numerically higher pIC50 result? In your reply, give the label of the chosen option.
A

###

target or test system: human type X sPLA2 (Homo sapiens, UniProt O15496)
Construct: unpurified culture supernatant used
protocol details: Inhibition test of human secretory phospholipase A2, chromogenic assay, Type X enzyme
setup conditions: human type X enzyme (CHO supernatant) 15 μl/well, absorbance change 30 min, OD 405 nm
pIC50: −log10 of the molar value.
measurement name: pIC50

>  <molecule>
Cc1cc(OC(C)C(=O)O)c2c3c(c(Cc4ccccc4)n2n1)CCC=C3C(N)=O (stereo not drawn)

>  <reported result>
8.40

$$$$

[A] NC(=O)C1=CCCc2c1c1c(OCC(=O)O)nccn1c2Cc1ccccc1
[B] Cc1ccc(Cc2c3c(c4c(OCC(=O)O)cc(C)nn24)C(C(N)=O)=CCC3)cc1
Input pair: A , B . Output: entry with lower pIC50. In your reply, give the label of the chosen option.
B
(B: 8.00, A: 8.40)

###

target or test system: human type II sPLA2 (Homo sapiens, UniProt P14555)
Sequence (P14555 21-144): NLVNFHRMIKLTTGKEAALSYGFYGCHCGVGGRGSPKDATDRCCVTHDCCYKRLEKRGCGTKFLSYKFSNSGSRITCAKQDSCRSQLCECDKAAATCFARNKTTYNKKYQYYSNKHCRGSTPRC
protocol details: Inhibition test of human secretory phospholipase A2, chromogenic assay, Type II enzyme
setup conditions: human type II enzyme 50 ng/well, absorbance change 30 min, OD 405 nm
pIC50: −log10 of the molar value.
measurement name: pIC50

>  <molecule>
Cc1cc(OC(C)C(=O)O)c2c3c(c(Cc4ccccc4)n2n1)CCC=C3C(N)=O (stereo not shown) [Compound I-2]

>  <reported result>
7.82

$$$$

[P] Cc1ccc(Cc2c3c(c4c(OCC(=O)O)cc(C)nn24)C(C(N)=O)=CCC3)cc1 [Compound I-3]
[Q] COc1cccc(Cc2c3c(c4c(OC(C)C(=O)O)cc(C)nn24)C(C(N)=O)=CCC3)c1 (stereo not shown) [Compound I-8]
Among P and Q , which shows a numerically higher pIC50 result? In your reply, give the label of the chosen option.
P

Origin of measurements: patent US6756376B1
